# MEASURED_TARGET: recombinant full-length WRN protein (1-1432) (Homo sapiens, UniProt Q14191)
# Construct: recombinant full-length WRN protein (1-1432)
# Sequence (Q14191 whole entry): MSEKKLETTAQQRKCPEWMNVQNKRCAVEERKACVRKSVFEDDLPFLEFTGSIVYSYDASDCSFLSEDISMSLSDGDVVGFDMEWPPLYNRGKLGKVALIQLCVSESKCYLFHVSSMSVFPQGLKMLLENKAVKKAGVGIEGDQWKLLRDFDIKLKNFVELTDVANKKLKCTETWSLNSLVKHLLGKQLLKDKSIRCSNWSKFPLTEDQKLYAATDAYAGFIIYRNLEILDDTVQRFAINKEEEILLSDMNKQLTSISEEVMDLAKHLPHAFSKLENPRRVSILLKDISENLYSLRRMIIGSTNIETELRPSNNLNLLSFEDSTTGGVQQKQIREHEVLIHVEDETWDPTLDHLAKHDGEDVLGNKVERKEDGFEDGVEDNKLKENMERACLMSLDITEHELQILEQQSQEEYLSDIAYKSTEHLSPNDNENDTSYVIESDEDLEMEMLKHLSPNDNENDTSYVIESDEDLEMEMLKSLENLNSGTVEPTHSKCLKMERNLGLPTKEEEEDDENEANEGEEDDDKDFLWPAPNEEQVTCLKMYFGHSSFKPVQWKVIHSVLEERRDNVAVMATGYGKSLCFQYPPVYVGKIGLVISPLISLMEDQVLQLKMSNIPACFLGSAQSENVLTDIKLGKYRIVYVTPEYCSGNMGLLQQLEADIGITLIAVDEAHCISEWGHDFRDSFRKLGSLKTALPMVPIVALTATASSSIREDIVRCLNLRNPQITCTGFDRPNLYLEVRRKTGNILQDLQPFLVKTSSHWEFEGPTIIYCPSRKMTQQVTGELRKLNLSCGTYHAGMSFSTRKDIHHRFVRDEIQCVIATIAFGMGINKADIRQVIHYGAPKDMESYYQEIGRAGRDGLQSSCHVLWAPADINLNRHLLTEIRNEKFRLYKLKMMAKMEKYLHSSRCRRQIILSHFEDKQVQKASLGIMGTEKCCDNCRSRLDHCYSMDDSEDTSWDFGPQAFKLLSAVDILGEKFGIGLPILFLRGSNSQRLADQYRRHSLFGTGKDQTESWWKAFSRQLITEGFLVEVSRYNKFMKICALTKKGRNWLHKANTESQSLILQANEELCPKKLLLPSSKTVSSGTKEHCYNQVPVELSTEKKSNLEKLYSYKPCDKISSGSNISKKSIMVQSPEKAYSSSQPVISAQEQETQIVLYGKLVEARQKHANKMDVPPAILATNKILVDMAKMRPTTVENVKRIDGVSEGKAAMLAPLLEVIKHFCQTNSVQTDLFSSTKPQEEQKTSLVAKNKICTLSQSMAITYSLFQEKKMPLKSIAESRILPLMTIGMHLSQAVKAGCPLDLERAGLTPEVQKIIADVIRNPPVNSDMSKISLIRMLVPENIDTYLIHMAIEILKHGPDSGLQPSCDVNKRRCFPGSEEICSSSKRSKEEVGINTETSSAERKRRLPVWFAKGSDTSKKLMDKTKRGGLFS
# METHOD_SUMMARY: WRN unwinding activity, fluorogenic 384-well assay (Example A)
# Format: biochemical
# CONDITION_DETAILS: WRN unwinding activity, 4 hr; Table 2; read-out: 4 hr UNW pIC50 (converted)
METRIC: IC50 (nM)
Give the quantity in nM, number only.

QUERY: Please tell me: IC50 of COC(=O)N1CCc2c(cnnc2-c2ccc([C@H]3CCC[C@@H](C(=O)Nc4ccc(C(F)(F)F)cc4F)[C@@H]3C(=O)O)cc2)C1 [Example 40] , system recombinant full-length WRN protein (1-1432) (Homo sapiens, UniProt Q14191)?
RESULT: 10000

QUERY: Follow-up item: C=CC1COC[C@@H]1c1ccc([C@H]2CCC[C@@H](C(=O)Nc3ccc(C(F)(F)F)cc3F)[C@@H]2C(=O)O)cc1 (mixture of isomers) [Example 66]
RESULT: 2510

QUERY: Follow-up item: Cc1nc2cc(S(=O)(=O)N(C)c3ccc([C@@H]4C[C@@H](N5CC[C@@H](F)C5)C[C@H](C(=O)Nc5ccc(C(F)(F)F)cc5F)[C@H]4C(=O)O)cc3)ccc2n1C (stereo in doubt) [Example 384]
RESULT: 398

QUERY: Follow-up item: Cc1nc2cc(S(=O)(=O)N(C)c3ccc([C@@H]4C[C@H](N(C)C)C[C@H](C(=O)Nc5ccc(C(F)(F)F)cc5F)[C@H]4C(=O)O)cc3)ccc2n1C (stereo in doubt) [Example 252]
RESULT: 63.1

QUERY: Follow-up item: Cc1nc2cc(S(=O)(=O)N(C)c3ccc([C@@H]4C[C@@H]5COC[C@@H]5[C@@H](C(=O)Nc5ccc(C(F)(F)F)cc5F)[C@@H]4C(=O)O)cc3)ccc2n1C (single isomer, unassigned) [Example 389]
RESULT: 5.01

QUERY: Follow-up item: O=C(O)[C@@H]1[C@@H](c2ccc(-c3cccc4c3COC4)cc2)CCC[C@H]1C(=O)Nc1ccc(C(F)(F)F)cc1F [Example 15]
RESULT: 158

QUERY: Follow-up item: Cc1nc2cc(S(=O)(=O)N(C)c3ccc([C@@H]4CCC[C@H](C(=O)Nc5ccc(C(F)(F)F)cc5F)[C@H]4C(=O)O)cc3C#N)ccc2n1C (relative stereo) [Example 163]
RESULT: 20

QUERY: Follow-up item: Cc1nc2cc(S(=O)(=O)N(C)c3ccc([C@H]4CCC[C@@H](CN5CC6(C5)CC(F)(F)C6)[C@@H]4C(=O)O)cc3)ccc2n1C (racemic) [Example 201]
RESULT: 25100

QUERY: Follow-up item: O=C(O)[C@@H]1[C@@H](c2ccc(-c3ccn[nH]3)cc2)CCC[C@H]1C(=O)Nc1ccc(C(F)(F)F)cc1F [Example 5]
RESULT: 20

QUERY: Follow-up item: CC#Cc1cc([C@H]2CCC[C@@H](C(=O)Nc3ccc(C(F)(F)F)cc3F)[C@@H]2C(=O)O)ccc1C(F)(F)F (racemic) [Example 240]
RESULT: 3980

QUERY: Follow-up item: CCC[C@H]1CC[C@H](NC(=O)[C@@H]2CCC[C@H](c3ccc(N(C)S(=O)(=O)c4ccc5c(c4)nc(C)n5C)cc3)[C@H]2C(=O)O)CC1 [Example 190]
RESULT: 1.58

QUERY: Follow-up item: CN(c1ccc([C@H]2CCC[C@@H](C(=O)Nc3ccc(C(F)(F)F)cc3F)[C@@H]2C(=O)O)cc1)S(=O)(=O)c1cccc(C2OCCO2)c1 [Example 118]
RESULT: 2
